Target: T1, CAPRIN-1 protein expressed on the membrane surface of human cancer cells (human, UniProt Q14444 2-709)
T1 sequence (looked up): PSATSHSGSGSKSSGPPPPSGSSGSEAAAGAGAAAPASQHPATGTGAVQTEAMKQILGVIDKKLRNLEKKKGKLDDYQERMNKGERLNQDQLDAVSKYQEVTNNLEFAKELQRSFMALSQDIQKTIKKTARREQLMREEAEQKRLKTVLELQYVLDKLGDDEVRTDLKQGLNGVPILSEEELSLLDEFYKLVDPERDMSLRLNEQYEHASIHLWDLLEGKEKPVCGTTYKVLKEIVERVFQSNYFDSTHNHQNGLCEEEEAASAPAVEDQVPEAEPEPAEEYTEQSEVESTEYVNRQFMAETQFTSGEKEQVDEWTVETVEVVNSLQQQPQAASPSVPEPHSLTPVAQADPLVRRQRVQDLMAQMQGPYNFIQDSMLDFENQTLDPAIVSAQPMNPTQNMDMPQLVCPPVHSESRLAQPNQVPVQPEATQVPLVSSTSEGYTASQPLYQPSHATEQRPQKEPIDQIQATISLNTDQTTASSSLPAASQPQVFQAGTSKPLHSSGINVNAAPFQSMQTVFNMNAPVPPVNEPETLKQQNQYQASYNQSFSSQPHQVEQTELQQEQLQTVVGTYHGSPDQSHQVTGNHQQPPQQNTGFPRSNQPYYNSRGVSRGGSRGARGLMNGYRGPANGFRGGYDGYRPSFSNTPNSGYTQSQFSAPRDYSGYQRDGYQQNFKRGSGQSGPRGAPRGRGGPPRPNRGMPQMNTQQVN
Assay: cell-based or functional assay
The reader will find reported ADCC cytotoxic activity (51Cr release) on Panc10.5 values listed item by item below.
MEASURED_ATTRIBUTE: ADCC cytotoxic activity (51Cr release) on Panc10.5

| BINDER | TEST_RESULT |
| --- | --- |
| human-rabbit chimeric anti-CAPRIN-1 antibody (antibody, V domains shown) VH: QSLEESGGRLVTPGTPLTLTCTASGFSLSSHSLGWVRQAPGKGLEWIGDIRSGGSAYYANWAKGRFTISRTSTTVALKMTSLTTEDTATYFCTRTNGPSDLTNRLDLWGQGTLVTVSS VL: QVLTQTPSSVSAAVGGTVTINCQASQSLYNNENLAWFQQKPGQPPKRLIYGASTLASGVSSRFKGSGSGTQFTLTIGDVQCDDAAIYYCLGEFSCGSADCFAFGGGTEVVVK | ≥ 24% |
| humanized antibody #0 (antibody, V domains shown) VH: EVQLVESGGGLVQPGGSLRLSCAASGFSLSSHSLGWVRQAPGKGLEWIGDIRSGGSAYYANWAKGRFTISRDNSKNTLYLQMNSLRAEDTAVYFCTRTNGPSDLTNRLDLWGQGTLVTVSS VL: AIQMTQSPSSLSASVGDRVTINCQASQSLYNNENLAWFQQKPGKAPKRLIYGASTLASGVSSRFSGSGSGTDFTLTISSLQPEDFAIYYCLGEFSCGSADCFAFGGGTKVEIK | ≥ 24% |
| humanized antibody #5 (antibody, V domains shown) VH: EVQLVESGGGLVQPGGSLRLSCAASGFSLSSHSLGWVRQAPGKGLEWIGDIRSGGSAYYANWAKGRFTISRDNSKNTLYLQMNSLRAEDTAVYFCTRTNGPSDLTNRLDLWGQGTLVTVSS VL: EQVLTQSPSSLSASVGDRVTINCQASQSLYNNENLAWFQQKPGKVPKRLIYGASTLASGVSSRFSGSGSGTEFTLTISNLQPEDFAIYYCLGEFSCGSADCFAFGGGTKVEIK | ≥ 30% |
| humanized antibody #1 (antibody, V domains shown) VH: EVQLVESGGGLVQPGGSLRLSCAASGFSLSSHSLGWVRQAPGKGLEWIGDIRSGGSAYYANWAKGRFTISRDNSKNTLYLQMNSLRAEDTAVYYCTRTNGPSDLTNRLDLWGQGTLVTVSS VL: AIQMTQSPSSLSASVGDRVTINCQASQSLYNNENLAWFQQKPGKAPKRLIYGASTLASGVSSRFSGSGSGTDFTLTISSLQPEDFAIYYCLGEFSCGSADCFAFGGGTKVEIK | ≥ 24% |
| humanized antibody #9 (antibody, V domains shown) VH: EQSLVESGGGLVQPGGSLRLSCAASGFSLSSHSLGWVRQAPGKGLEWIGDIRSGGSAYYANWAKGRFTISRDNSKNTLYLQMNSLRAEDTAVYYCTRTNGPSDLTNRLDLWGQGTLVTVSS VL: DIVLTQSPSSLSASVGDRVTINCQASQSLYNNENLAWFQQKPGKVPKRLIYGASTLASGVSSRFSGSGSGTEFTLTISSLQCEDFAIYYCLGEFSCGSADCFAFGGGTKVEIK | ≥ 24% |
| humanized antibody #7 (antibody, V domains shown) VH: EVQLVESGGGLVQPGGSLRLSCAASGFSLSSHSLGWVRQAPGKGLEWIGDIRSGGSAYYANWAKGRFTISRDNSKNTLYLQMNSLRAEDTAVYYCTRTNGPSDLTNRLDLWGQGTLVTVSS VL: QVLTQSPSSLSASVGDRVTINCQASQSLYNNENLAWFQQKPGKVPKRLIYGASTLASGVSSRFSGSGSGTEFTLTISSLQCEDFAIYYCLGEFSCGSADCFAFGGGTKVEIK | ≥ 35% |
| humanized antibody #8 (antibody, V domains shown) VH: QSLVESGGGLVQPGGSLRLSCAASGFSLSSHSLGWVRQAPGKGLEWIGDIRSGGSAYYANWAKGRFTISRTSSKNTVYLQMNSLRAEDTAVYFCTRTNGPSDLTNRLDLWGQGTLVTVSS VL: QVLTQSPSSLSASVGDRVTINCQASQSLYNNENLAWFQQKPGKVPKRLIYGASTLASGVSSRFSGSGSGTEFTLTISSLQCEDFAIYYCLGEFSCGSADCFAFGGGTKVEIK | ≥ 24% |
| humanized antibody #2 (antibody, V domains shown) VH: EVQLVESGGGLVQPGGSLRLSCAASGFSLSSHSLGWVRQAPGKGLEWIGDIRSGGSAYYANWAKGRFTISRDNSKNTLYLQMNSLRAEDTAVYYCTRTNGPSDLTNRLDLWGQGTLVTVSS VL: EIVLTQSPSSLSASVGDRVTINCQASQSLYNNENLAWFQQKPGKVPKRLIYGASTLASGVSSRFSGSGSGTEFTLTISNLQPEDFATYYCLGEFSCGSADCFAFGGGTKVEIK | ≥ 30% |
| humanized antibody #10 (antibody, V domains shown) VH: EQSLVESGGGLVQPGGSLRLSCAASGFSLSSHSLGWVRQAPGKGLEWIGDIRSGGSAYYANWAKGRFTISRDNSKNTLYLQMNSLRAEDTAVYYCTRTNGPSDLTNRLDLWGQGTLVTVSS VL: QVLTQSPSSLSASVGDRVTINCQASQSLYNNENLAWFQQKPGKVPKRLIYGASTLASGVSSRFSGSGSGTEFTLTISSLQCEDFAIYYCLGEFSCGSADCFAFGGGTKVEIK | ≥ 35% |
| humanized antibody #6 (antibody, V domains shown) VH: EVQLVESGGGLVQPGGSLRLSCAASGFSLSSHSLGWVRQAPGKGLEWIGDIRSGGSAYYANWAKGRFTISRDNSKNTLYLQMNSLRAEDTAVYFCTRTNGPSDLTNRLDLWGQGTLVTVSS VL: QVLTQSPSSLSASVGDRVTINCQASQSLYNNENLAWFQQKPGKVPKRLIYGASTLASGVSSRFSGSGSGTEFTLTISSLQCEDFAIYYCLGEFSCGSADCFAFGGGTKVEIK | ≥ 35% |
| humanized antibody #4 (antibody, V domains shown) VH: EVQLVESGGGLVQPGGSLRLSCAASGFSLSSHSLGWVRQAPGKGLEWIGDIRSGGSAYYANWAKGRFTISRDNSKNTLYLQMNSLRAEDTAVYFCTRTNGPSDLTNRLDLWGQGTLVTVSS VL: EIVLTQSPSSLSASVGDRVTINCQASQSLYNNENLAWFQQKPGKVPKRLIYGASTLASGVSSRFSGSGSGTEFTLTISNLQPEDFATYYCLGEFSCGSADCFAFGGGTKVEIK | ≥ 30% |
